Recorded below: AC50, system Vasopressin V2 receptor (Homo sapiens). Also: assay procedure not described here.

Lab note: Nc1cc(N2CCCCC2)nc(N)[n+]1[O-] [MINOXIDIL] gave AC50 of > 30 µM

Input CC1CC(OC(=O)C(O)c2ccccc2)CC(C)(C)C1 (stereo not drawn) [CYCLANDELATE] . Output AC50: > 10 µM

Lookup result for CCOc1cc2ncc(C#N)c(Nc3ccc(OCc4ccccn4)c(Cl)c3)c2cc1NC(=O)/C=C/CN(C)C [NERATINIB] ; measured AC50: 22 µM

AC50 in this record for COc1ccc(C(Cl)=C(c2ccc(OC)cc2)c2ccc(OC)cc2)cc1 [CHLOROTRIANISENE] : > 30 µM

compound CCOC(=O)O[C@]1(C(=O)COC(=O)CC)CC[C@H]2[C@@H]3CCC4=CC(=O)C=C[C@]4(C)[C@H]3[C@@H](O)C[C@@]21C [PREDNICARBATE] , AC50 observed: > 10 µM

Field AC50 (entry C[C@]12C=CC(=O)C=C1C(Cl)=C[C@@H]1[C@@H]2[C@@H](O)C[C@@]2(C)[C@H]1CC[C@]2(O)C(=O)CO [CLOPREDNOL] ) reads > 30 µM

# compound OCC(CO)N[C@H]1C[C@](O)(CO)[C@@H](O)[C@H](O)[C@H]1O [VOGLIBOSE] ; its AC50 = > 30 µM

Note to self: AC50 recorded for C[C@H](CS)C(=O)N1CCC[C@H]1C(=O)O [CAPTOPRIL] was > 30 µM
